Cited source for all entries: patent US10131652B2

tested on: large (Lg) crabgrass (Digitaria sanguinalis); assay: Test B pre-/postemergence plant response; type: in vivo; conditions: Digitaria sanguinalis, pre-emergence, 240 h; Preemergence, 125 g ai/ha; 0 to 100 scale where 0 is no effect and 100 is complete control; read-out: Plant response rating, Crabgrass, Large
Response key: 1 means pest or weed control at 125 g/ha >= 60%; -1 means pest or weed control at 125 g/ha < 60%.

structure-string: FC(F)(F)Oc1ccc(-c2ccccc2Oc2ncc(Cl)cn2)cc1
label-class: -1

structure-string: Clc1ccc(-c2c(Cl)cccc2Oc2ncc(Cl)cn2)nc1
label-class: -1

structure-string: FC(F)(F)c1ccc(-c2ccccc2Oc2ncc(Cl)cn2)nc1
label-class: 1

structure-string: Cc1ccc(Oc2ncc(Cl)cn2)c(-c2ccnc(C(F)(F)F)c2)c1
label-class: 1

structure-string: FC(F)c1cc(-c2ccccc2Oc2ncc(Br)cn2)no1
label-class: 1
